Assay: chemical genetic growth profiling, strain panel (AID 1159580);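 also: tested at 20 µM; growth read once vehicle control cultures reached saturation at 30 °C; 1 = growth at the plate median or of vehicle wells; lower values mean less growth of the strain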
Details: S. cerevisiae deletion strains, growth OD, locus YAL013W, strain DEP1, hits give low values
About 2,000 (36%) of roughly 5,500 compounds were called active. Roughly 18% stayed inconclusive and do not appear here. The list shows a part of the results.
What normalized growth was measured for each of the following?
I'd appreciate a reply containing only the number, no unit.

Query: Entry O=C(O)P(=O)(O)O : reported normalized growth = ?
Response: 0.961

Query: Entry CCC(CO)NC(=O)C1C=C2c3cccc4c3c(cn4C)CC2N(C)C1 (configuration not stated) : reported normalized growth = ?
Response: 0.988

Query: Entry COC(=O)c1ccc(S(=O)(=O)NCc2ccccc2)n1C : reported normalized growth = ?
Response: 1.01

Query: Entry O=C(O)CNCP(=O)(O)O : reported normalized growth = ?
Response: 0.998

Query: Entry COC(=O)c1ccc(-c2ccccc2F)cc1 : reported normalized growth = ?
Response: 0.984

Query: Entry CCOP(=S)(OCC)Oc1ccc2c(C)c(Cl)c(=O)oc2c1 : reported normalized growth = ?
Response: 0.987

Query: Entry CC(C)c1nc2ccccc2[nH]1 : reported normalized growth = ?
Response: 1.01

Query: Entry CCOP(=S)(OCC)SCCSCC : reported normalized growth = ?
Response: 0.992

Query: Entry NCCCCN=C(N)N : reported normalized growth = ?
Response: 1

Query: Entry S=C(NCCCn1ccnc1)Nc1cc(Cl)ccc1Cl : reported normalized growth = ?
Response: 1.02

Query: Entry CCOP(=S)(OCC)SCSCC : reported normalized growth = ?
Response: 1

Query: Entry COC(=O)c1ccc(C#Cc2ccccc2)o1 : reported normalized growth = ?
Response: 0.9

Query: Entry C=CCc1cc(OC)c2c(c1OC)OCO2 : reported normalized growth = ?
Response: 0.971

Query: Entry CCOP(=S)(OCC)SCSP(=S)(OCC)OCC : reported normalized growth = ?
Response: 0.993

Query: Entry COc1cc(C(=O)O)c(O)c2c1OCO2 : reported normalized growth = ?
Response: 1.01

Query: Entry NC(=O)c1cc[n+](CC2=C(C(=O)O)N3C(=O)C(NC(=O)C(c4ccccc4)S(=O)(=O)[O-])C3SC2)cc1 (configuration not stated) : reported normalized growth = ?
Response: 0.983

Query: Entry CC(C)C1=CC2=CCC3[C@](C)(CCC[C@]3(C)C(=O)O)C2CC1 (some centres not stated) : reported normalized growth = ?
Response: 0.957

Query: Entry CNC(CC(=O)O)C(=O)O (configuration not stated) : reported normalized growth = ?
Response: 1.02

Query: Entry COc1ccc(/C=C/C(=O)Nc2ccccc2C(=O)O)cc1OC : reported normalized growth = ?
Response: 1.03

Query: Entry CC(C)(C)OC(=O)N1CCN(Cc2ccccc2)CC1 : reported normalized growth = ?
Response: 1

Query: Entry CN=C1CN(O)C(c2ccccc2)=c2cc(Cl)ccc2=N1 : reported normalized growth = ?
Response: 0.989

Query: Entry CO[C@@H]1C[C@@H](C[C@H]2CC[C@H](C)[C@H]([C@@H](C)C(=O)O)O2)O[C@]2(O[C@](C)([C@H]3CC[C@@](C)(C4O[C@@H](C5O[C@@](O)(CO)[C@H](C)C[C@@H]5C)C[C@@H]4C)O3)C[C@H]2C)[C@@H]1C (some centres not stated) : reported normalized growth = ?
Response: 1.03
